# Tested on: HFF-1 cells
# test summary: Viability IC50, high-throughput automated analysis (Table 4)
# Format: cell-based
# conditions used: Homo sapiens, 3 population doubling times
# Experimental: FIG. 1A) is a line graph showing changes in the percentage of viable HFF-1, HeLa, A549 and HCT 116 cells after treatment with a range of C75 concentrations for 3 population doubling times (N=3). […] There were more rounded mitotic cells after C75 treatment in comparison to the control. FIG. 1C) is a line graph showing the percentage of HeLa and HFF1 cells in mitosis after treatment with various concentrations of C75 for 8 hours. The bars indicate standard deviation. […]
metric name: pIC50
Lab note — pIC50 values are minus log10 of concentrations in M.

Prompt: Given the entry COc1ccc(S(=O)(=O)N2Cc3ccccc3-c3sc(Br)cc32)cc1 [Compound C75] , report its measured pIC50.
Response: 6.10
